# TARGET_OR_TEST_SYSTEM: V-type immunoglobulin domain-containing suppressor of T-cell activation (Homo sapiens, UniProt Q9H7M9)
# Sequence (Q9H7M9 whole entry, the tested form may be a part): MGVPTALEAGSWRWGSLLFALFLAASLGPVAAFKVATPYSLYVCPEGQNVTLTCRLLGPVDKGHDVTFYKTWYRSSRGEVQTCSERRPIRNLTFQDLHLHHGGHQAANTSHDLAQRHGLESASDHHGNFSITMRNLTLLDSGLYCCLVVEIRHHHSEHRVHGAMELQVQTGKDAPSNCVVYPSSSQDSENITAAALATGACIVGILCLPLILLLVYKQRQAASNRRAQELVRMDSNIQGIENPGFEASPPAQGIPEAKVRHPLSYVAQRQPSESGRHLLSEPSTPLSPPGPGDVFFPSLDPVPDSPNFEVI
# PROTOCOL_DETAILS: Binding affinity to human VISTA assessed as dissociation constant by SPR assay
pKd: −log10 of the molar value.
Assign 1 (yes) whenever pKd does not fall below 6; assign 0 (no) whenever it does.

// below: answered compounds
1) CC(=O)NCCNCc1cccc(-c2nc3ccc(-c4ccccc4)c(C)c3[nH]2)c1: 1 (yes)
2) CC(=O)NCCNCc1ccc(-c2nc3ccc(-c4ccccc4)c(C)c3[nH]2)cc1: 1 (yes)
3) Cc1c(-c2ccccc2)ccc2nc(-c3cccc(CNCCN)c3)[nH]c12: 1 (yes)
4) CC(=O)NCCNCc1cccc(-c2nc3cccc(C)c3[nH]2)c1: 0 (no)

Below: the item to evaluate.
Check the entry `Cc1c(-c2ccccc2)ccc2nc(-c3cccc(CNC[C@H](O)CC(=O)O)c3)[nH]c12` : does pKd equal or exceed 6?
0 (no)

Numbers sourced from ChEMBL document CHEMBL5321276.
